# System: NCI/ADR-RES
# experiment summary: NCI tumour cell line growth inhibition, 48 h
Calls of active or inactive are those of the source. Cut-off read from the data, not from the text of the source: active = GI50 up to about 1.1 µM and inactive = higher.
measured metric: GI50

compound | assayed system | measured metric | obs value
N=C(N)Nc1ccc(CC(N)C(=O)O)cc1 (configuration not stated) | NCI/ADR-RES | GI50 | > 12.5 µM (inactive)
CN(C)c1ccc(/C=N/CC2CCCN3CCCCC23)cc1 (configuration not stated) | NCI/ADR-RES | GI50 | > 100 µM (inactive)
Cc1nn(-c2cc(Cl)ccc2[N+](=O)[O-])c(C)c1Cl | NCI/ADR-RES | GI50 | 55.8 µM (inactive)
Cc1ncc(COP(=O)(O)O)c(/C=C2\SC(=S)NC2=O)c1O | NCI/ADR-RES | GI50 | > 100 µM (inactive)
c1ccc(CCN2CCN=C2Cc2ccccc2)cc1 | NCI/ADR-RES | GI50 | 90.4 µM (inactive)
C[n+]1c(-c2ccccc2)cc2/c(=C\c3ccc([N+](=O)[O-])cc3)c3ccccc3n21 | NCI/ADR-RES | GI50 | > 100 µM (inactive)
N=C(N)N/N=C/c1c(-c2ccccc2[N+](=O)[O-])nc2sccn12 | NCI/ADR-RES | GI50 | > 100 µM (inactive)
CS/C(N)=N/c1cccc2ccccc12 | NCI/ADR-RES | GI50 | > 10 µM (inactive)
S=C(NN=C1NCCCCN1)Nc1ccccc1 | NCI/ADR-RES | GI50 | > 100 µM (inactive)
N#CCCSC(=S)C1CCCC1=N (configuration not stated) | NCI/ADR-RES | GI50 | > 100 µM (inactive)
CC(C)(Br)C(=O)N1CCN(C(c2ccccc2)c2ccccc2)CC1 | NCI/ADR-RES | GI50 | > 100 µM (inactive)
O=C(CSc1nc2ccc(I)cc2c(=O)n1Cc1ccccc1)NN1C(=O)CSC1c1ccccc1 (configuration not stated) | NCI/ADR-RES | GI50 | 26.5 µM (inactive)
